Target: MCH-5 (Homo sapiens, UniProt Q14790)
Sequence (Q14790 217-374 limits assumed, species assumed): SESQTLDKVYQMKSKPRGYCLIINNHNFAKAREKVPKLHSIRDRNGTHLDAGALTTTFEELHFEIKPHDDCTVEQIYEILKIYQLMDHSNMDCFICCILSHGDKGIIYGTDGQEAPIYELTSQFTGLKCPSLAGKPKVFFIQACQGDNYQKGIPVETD
Sequence (Q14790 385-479 limits assumed, species assumed): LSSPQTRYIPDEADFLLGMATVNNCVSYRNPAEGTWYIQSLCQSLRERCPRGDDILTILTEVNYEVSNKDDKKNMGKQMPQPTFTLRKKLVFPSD
Experiment: Dissociation constant Ki and irreversible rate constant k3 for irreversible inhibitors (Mch5)
Assay type: biochemical
Assign Ki to each entry below.
Answers are plain numbers, in nM.

C[C@H](NC(=O)C(=O)NC12CC3CC(CC(C3)C1)C2)C(=O)N[C@@H](CC(=O)O)C(=O)COP(=O)(c1ccccc1)c1ccccc1 [Example 53] :: 77

Turning to the following compound.
Can you share its Ki? I mean this compound: C[C@H](NC(=O)C(=O)NC12CC3CC(CC(C3)C1)C2)C(=O)N[C@@H](CC(=O)O)C(=O)COC(=O)c1c(Cl)cccc1Cl [Example 54]
80

###

Biological target: MCH-2 (Homo sapiens, UniProt P55212)
Sequence (P55212 24-179 limits assumed): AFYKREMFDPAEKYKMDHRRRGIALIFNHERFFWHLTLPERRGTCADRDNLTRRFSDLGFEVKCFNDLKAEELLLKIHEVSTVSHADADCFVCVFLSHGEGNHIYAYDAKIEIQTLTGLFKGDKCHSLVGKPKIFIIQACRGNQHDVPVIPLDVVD
Sequence (P55212 194-293 limits assumed): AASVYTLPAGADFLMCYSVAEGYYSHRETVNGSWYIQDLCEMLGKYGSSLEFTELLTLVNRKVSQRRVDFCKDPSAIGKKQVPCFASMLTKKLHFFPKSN
Assay: Dissociation constant Ki and irreversible rate constant k3 for irreversible inhibitors (Mch2)
Type: biochemical
Details: continuous assay 60 min, reaction initiated by adding enzyme to substrate-inhibitor mixture
readout label: Ki (nM)
Numbers only, in nM.

CC(C)[C@H](NC(=O)C(=O)Nc1cccc2ccccc12)C(=O)N[C@@H](CC(=O)O)C(=O)COC(=O)c1c(Cl)cccc1Cl :: 9

Provide Ki for all items below, preserving their order.
1. CC(C)[C@H](NC(=O)C(=O)Nc1cccc2ccccc12)C(=O)N[C@@H](CC(=O)O)C(=O)COc1c(-c2ccccc2)oc2ccccc2c1=O
2. C[C@H](NC(=O)C(=O)Nc1ccc(F)cc1)C(=O)N[C@@H](CC(=O)O)C(=O)COP(=O)(c1ccccc1)c1ccccc1

1. 336
2. 9

Hi there! I need Ki for each item below, if you can.
1. C[C@H](NC(=O)C(=O)Nc1cc(C(F)(F)F)ccc1N1CCCC1)C(=O)N[C@@H](CC(=O)O)C(=O)COP(=O)(c1ccccc1)c1ccccc1
2. C[C@H](NC(=O)C(=O)NCc1cccc2ccccc12)C(=O)N[C@@H](CC(=O)O)C(=O)COC(=O)c1c(Cl)cccc1Cl

[7.3, 11]

Parameters: items (list). Returns: Ki for each item.
1. CC(C)[C@H](NC(=O)C(=O)Nc1ccccc1)C(=O)N[C@@H](CC(=O)O)C(=O)COc1c(F)c(F)cc(F)c1F
2. CC(C)[C@H](NC(=O)C(=O)Nc1cccc2ccccc12)C(=O)NC(CC(=O)O)C(=O)CF (mixture of isomers)
3. C[C@H](NC(=O)C(=O)NC1CCCCC1)C(=O)N[C@@H](CC(=O)O)C(=O)COC(=O)c1c(Cl)cccc1Cl

100
17
6.3

Return reported Ki values for all items listed beneath this line.
1. C[C@H](NC(=O)C(=O)Nc1ccccc1C(C)(C)C)C(=O)N[C@@H](CC(=O)O)C(=O)COC(=O)c1c(Cl)cccc1Cl [Example 37]
2. COC(=O)c1cc(OCC(=O)[C@H](CC(=O)O)NC(=O)[C@@H](NC(=O)C(=O)Nc2cccc3ccccc23)C(C)C)no1

1: 13; 2: 96

###

Target: mICE (Mus musculus, UniProt P29452)
Sequence (P29452 123-296 limits assumed): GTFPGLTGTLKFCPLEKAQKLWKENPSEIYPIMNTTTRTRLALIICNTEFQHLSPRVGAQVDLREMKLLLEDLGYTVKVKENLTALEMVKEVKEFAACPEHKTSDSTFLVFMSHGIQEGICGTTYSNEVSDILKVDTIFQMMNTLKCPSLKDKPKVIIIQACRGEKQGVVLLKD
Sequence (P29452 315-402 limits assumed): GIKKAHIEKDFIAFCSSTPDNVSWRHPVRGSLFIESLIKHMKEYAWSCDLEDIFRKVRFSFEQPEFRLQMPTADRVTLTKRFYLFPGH
Assay: Dissociation constant Ki and irreversible rate constant k3 for irreversible inhibitors (ICE)
Type: biochemical
Conditions: continuous assay 60 min, reaction initiated by adding enzyme to substrate-inhibitor mixture
readout label: Ki (µM)
Numbers only, in µM.

CC(C)[C@H](NC(=O)C(=O)Nc1cccc2ccccc12)C(=O)N[C@@H](CC(=O)O)C(=O)COP(C)(=O)c1ccccc1 (stereo partly drawn) :: 0.0065

List the reported Ki of each compound below.
1. C[C@H](NC(=O)C(=O)Nc1ccccc1C(C)(C)C)C(=O)N[C@@H](CC(=O)O)C(=O)COC(=O)c1c(Cl)cccc1Cl [Example 76]
2. C[C@H](NC(=O)C(=O)Nc1ccccc1C(C)(C)C)C(=O)N[C@@H](CC(=O)O)C(=O)COP(=O)(c1ccccc1)c1ccccc1 [Example 47]

1: 0.019; 2: 0.014
